Values were extracted from the supplement of paper PMC9732359.

PROTOCOL NOTES: protein stability index of a GFP-peptide fusion (yeast GPS) (PSI 1-4); higher = more stable; sorted into four equal gates, so the index is relative within each strain
RUN CONDITIONS: ubr1∆
Listed sequences paired with reported protein stability index
Please give the numeric answer without any surrounding text.

ETIKMKELDQELIIDPL [BRN1] ... 3.01
AIPNPEDVVAISSRTFG [RPS0A] ... 2.94
LGKVRFANYKLLLKKII [SRB4] ... 1.53
QPTPRSASNTAKSTPNT [GAL11] ... 2.55
ISEVMEDRNQRIKEMYW [FAS1] ... 2.97

Give the measured protein stability index of VPVIESAGFETDLRLST [SNU114] .
3.17

Give the measured protein stability index of KNKENNTFTWNHSLQHQ [RPN4] .
1.95

Give the measured protein stability index of KRPGKLSDYIPGPYPNE [CYT1] .
3.16

Give the measured protein stability index of KKGEYARFKSKDERDTW [SMC3] .
3.32

Give the measured protein stability index of EGEKCHPQDFGNPGRIR [SEC65] .
3.08

Give the measured protein stability index of YVYRASKEVRGSKIRVM [RPL33A] .
2.88

---

PROTOCOL NOTES: protein stability index of a GFP-peptide fusion (yeast GPS) (PSI 1-4); higher = more stable; sorted into four equal gates, so the index is relative within each strain
RUN CONDITIONS: ubr1∆
Listed sequences paired with reported protein stability index
Please give the numeric answer without any surrounding text.

IKLVKQNDELKFQGVLE [RPC34] ... 2.58
DNFDYFNQRDGEHEKSN [MED1] ... 3.56
PPKHTELLLTTLSVSHG [SSN2] ... 1.61
RAGQRGYHSRTSINHKI [RPL3] ... 3.5
SQHKKILEELDFVRNEL [SMC3] ... 3.01
QRFVGHKSDVMSVDIDK [ASC1] ... 2.96

Give the measured protein stability index of KVDATPEESKPINLQNG [YLR335W/NUP2] .
3.21

Give the measured protein stability index of QVIKNEVCAKMPNIELY [SSN2] .
2.35

---

PROTOCOL NOTES: protein stability index of a GFP-peptide fusion (yeast GPS) (PSI 1-4); higher = more stable; sorted into four equal gates, so the index is relative within each strain
RUN CONDITIONS: doa10∆
Listed sequences paired with reported protein stability index
Please give the numeric answer without any surrounding text.

Worked set:
MAFQKDAKSSAYSSRFQ [RPL5] ... 2.67
EINETEFIRCGCLIKNL [RMP1] ... 2.48
LKTFNGSLALLKLSMAD [POP4] ... 2.33
ALSGNEGDASPFTDITV [RPB2] ... 2.99
DSNKTLLHNHLKSIESL [SMC2] ... 1.87

Give the measured protein stability index of NVKVIMATNRADTLDPA [RPT3] .
2.67

Give the measured protein stability index of ETQYFWKLLNQLVLRGL [YJR042W/NUP85] .
2.18

---

Listed sequences paired with reported protein stability index
PROTOCOL NOTES: protein stability index of a GFP-peptide fusion (yeast GPS) (PSI 1-4); higher = more stable; sorted into four equal gates, so the index is relative within each strain
RUN CONDITIONS: doa10∆
Please give the numeric answer without any surrounding text.

NAIFQMESEEVPLTKRY [PCI8] ... 2.81
LPVKHPELFESLGIAQP [RPT6] ... 2.65
SNSSSSPPIIDLFSNNN [MED1] ... 2.77
QRTLSKSFYSTATGAAS [CYT1] ... 1.98

Give the measured protein stability index of VSKVQKRKVLELKKKRK [SRP72] .
2.78

Give the measured protein stability index of MTYKNKLTVCFDDILKV [MED2] .
2.13

Give the measured protein stability index of ADEMGLGKTIQTISLLT [SNF2] .
1.73

---

Listed sequences paired with reported protein stability index
PROTOCOL NOTES: protein stability index of a GFP-peptide fusion (yeast GPS) (PSI 1-4); higher = more stable; sorted into four equal gates, so the index is relative within each strain
RUN CONDITIONS: pdr5∆
Please give the numeric answer without any surrounding text.

Worked set:
KAFTNWNKRDFMAFINA [ISW2] ... 1.25
AEKKIPLVIRRYLPDGS [RPO26] ... 2.54

Give the measured protein stability index of LWVFQAFTCFCIKKIME [SRB8] .
1.52

---

PROTOCOL NOTES: protein stability index of a GFP-peptide fusion (yeast GPS) (PSI 1-4); higher = more stable; sorted into four equal gates, so the index is relative within each strain
RUN CONDITIONS: pdr5∆
EXPERIMENTAL READOUT: protein stability index

Worked set:
DQSNVQYYLSVLNQQLP [BRR2] ... 3.03
SRSNFQGKHTKFENDEL [LRP1] ... 2.99

Query sequence follows.
Give the measured protein stability index of LKEILNVAKNMKTPSLT [RPO21] .
3.06

---

PROTOCOL NOTES: protein stability index of a GFP-peptide fusion (yeast GPS) (PSI 1-4); higher = more stable; sorted into four equal gates, so the index is relative within each strain
RUN CONDITIONS: pdr5∆
EXPERIMENTAL READOUT: protein stability index
Please give the numeric answer without any surrounding text.

Worked set:
RGFFDILSLATEGCIGL [MCD1] ... 3.03
APLNFNPIIENNVDNKY [SSN2] ... 2.97
SHNWAAKAKRRHTTGTG [RPL37B] ... 2.92

Give the measured protein stability index of VSCYRPRRDGERKRKSV [RPS6A] .
2.91

---

Listed sequences paired with reported protein stability index
PROTOCOL NOTES: protein stability index of a GFP-peptide fusion (yeast GPS) (PSI 1-4); higher = more stable; sorted into four equal gates, so the index is relative within each strain
RUN CONDITIONS: pdr5∆

DYVVAPGVNREINSEMC [GRR1] ... 3.18
FNSFRRFKSQFLYVLIP [QCR8] ... 1.69
MQENDKINQERLERRIN [CSI1] ... 1.92
GMIYNKLFVSKEHAPYT [FAS2] ... 2.2
STLMPGGVDVGPSVESY [SNF5] ... 1.87

Give the measured protein stability index of KLAFGLTKLNEDDLVGV [TAF14] .
3.15

Give the measured protein stability index of LSTLPAGKSLVSKSEPK [QCR2] .
3.27

Give the measured protein stability index of MEKLDAKLNHLKKLEKF [SWI3] .
2.7

Give the measured protein stability index of TGKITKMFQDIRLSKIL [CDC53] .
3.03

Give the measured protein stability index of EILVLYNVCDTSKSLVK [SIN4] .
2.88

Give the measured protein stability index of VAIAETDSWESFFVSVR [FAS1] .
3.05

Give the measured protein stability index of SAAKASQSRSAKAGLTF [HTA1] .
2.96

Give the measured protein stability index of IAGTFNVGKPDQSIASG [YOR098C/NUP1] .
2.68

Give the measured protein stability index of NDEKRVKEEYDIWQSRD [YIL149C/MLP2] .
3.06

Give the measured protein stability index of SKLKLKNLLRKNLSIDE [ECM29] .
1.47

Give the measured protein stability index of YLGEGPRMVRDVFRLAR [RPT3] .
2.96

Give the measured protein stability index of IGSTSKRPIESGTSSDP [YIL149C/MLP2] .
3.22

Give the measured protein stability index of HGSISPQEESVSPNISS [SIR3] .
3.06

Give the measured protein stability index of VSRGQSAVLLETTLGEM [PRP8] .
2.36

Give the measured protein stability index of LLPLVVSNISCLTGTVA [ECM29] .
1.38

Give the measured protein stability index of AQKYASIVGVDLSSAAS [FAS2] .
2.21

Give the measured protein stability index of TIVTGGGSGNGDDVVND [RPP1] .
3.6

Give the measured protein stability index of ANNDINSLLSNFNDIPP [YDL088C/ASM4] .
2.87

Give the measured protein stability index of RNVGKTLVNKSTGLKSA [RPS1A] .
2.72

Give the measured protein stability index of SYVNYRHMALLVDVMTT [RPO21] .
1.25

Give the measured protein stability index of SLPRFSKPVLIVGQKNL [DIS3] .
2.42

---

PROTOCOL NOTES: protein stability index of a GFP-peptide fusion (yeast GPS) (PSI 1-4); higher = more stable; sorted into four equal gates, so the index is relative within each strain
RUN CONDITIONS: ubr1∆
EXPERIMENTAL READOUT: protein stability index
Please give the numeric answer without any surrounding text.

Worked set:
VNKVPQNVAGDKTAVKL [SWP82] ... 3.07
LESSITDAGVLALKLEL [YJL039C/NUP192] ... 1.57
GPAAAKPMAFSNTTTHV [MTR3] ... 3.27

Query sequence follows.
Give the measured protein stability index of IMKIGGIKLQMQNSKVE [SMC4] .
2.1
